Provenance of the data: PubChem BioAssay

- EXPERIMENT DESCRIPTION: thallium flux activation in parental CHO cells, counter-screen for KCNQ1 potentiator project (AID 493006);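 for activation: fluorescence ratio of max minus min over baseline after K+ and Tl+ depolarization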
- MEASUREMENT CONTEXT: parental CHO-K1 cells, FluxOR thallium flux, at 10 µM
The source made the active and inactive calls.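 Rule for the calls: active = duplicate-averaged activation above buffer control mean plus 5 SD of those controls; inactive = the rest.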
Outcome codes: 1.0 = active, 0.0 = inactive

MOLECULE: O=C(N/N=C/c1cc([N+](=O)[O-])cc(Br)c1O)C12CC3CCC(CC(C3)C1)C2
CLASS: 1.0
--
MOLECULE: CNC(C)C#Cc1ccc2sc3cccc(OC)c3c(=O)c2c1 (stereo not drawn)
CLASS: 0.0
--
MOLECULE: N=c1ccn(CC(=O)c2ccc(-c3ccccc3)cc2)cc1
CLASS: 0.0

* * *

- EXPERIMENTAL SYSTEM: Potassium voltage-gated channel subfamily KQT member 1 (Homo sapiens)
- EXPERIMENT DESCRIPTION: KCNQ1 channel current potentiators, confirmation, orthogonal assay for KCNQ1 potentiator project, IonWorks patch clamp, KCNQ1-CHO cells (AID 493184)
- MEASUREMENT CONTEXT: automated patch clamp current, at 10 µM
Active and inactive are the calls of the source.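 Rule for the calls: active = current rise at least 3 SD above the untreated control mean in each of two repeat wells; inactive = the rest.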
Outcomes: T (active), F (inactive)

COMPOUND: CC(Oc1ccc(Br)cc1)C(=O)N1CCC(C(N)=O)CC1 (stereo unspecified)
CLASS: F
--
COMPOUND: CCCCOC(=O)c1ccc(NC(=S)NC(=O)c2c(Cl)cnn2CC)cc1
CLASS: F
--
COMPOUND: S=c1nc(C2CCCCC2)[nH]c2ccccc12
CLASS: F
--
COMPOUND: COc1ccc(OC)c(NC(=O)C(=O)NNC(=O)COc2ccc(Br)cc2C)c1
CLASS: F
--
COMPOUND: O=C(Nc1ccccc1Cl)N1CCN(c2ccccn2)CC1
CLASS: F
--
COMPOUND: COc1ccc2nc(/N=C/c3c(C)[nH]n(-c4ccc(C)cc4)c3=O)sc2c1
CLASS: F
--
COMPOUND: Cc1cc(/C=N/n2cnnc2)c(C)n1-c1ccc(Cl)cc1Cl
CLASS: T
--
COMPOUND: Oc1[nH]c2c(Cl)cc(Cl)cc2c1N=NC(=S)NCC1CCCO1 (stereo unspecified)
CLASS: F
--
COMPOUND: COc1ccc2c(c1)c(=O)c(C(=O)O)c(-c1ccc3c(c1)OCO3)n2C
CLASS: F
--
COMPOUND: Cn1ncc2c(O/N=C(\N)c3ccc(C(C)(C)C)cc3)ncnc21
CLASS: F
--
COMPOUND: COc1ccccc1OCCCc1c(C)n[nH]c1C
CLASS: F
--
COMPOUND: CCNC(=S)Nc1nc2c(cc1C(=O)OCC)CCCC2
CLASS: F
--
COMPOUND: O=C(Nc1nnc(-c2ccc(Cl)cc2)o1)c1ccccc1Br
CLASS: F
--
COMPOUND: Cc1c(C(=O)Nc2ccc(F)cc2)oc2ccc(S(=O)(=O)N3CC(C)CC(C)C3)cc12 (stereo unspecified)
CLASS: F
--
COMPOUND: CCOc1ccc(-c2c(=O)n(O)c3ccccc3[n+]2[O-])cc1
CLASS: F
--
COMPOUND: CC1CCN(C(=S)NC(=O)c2ccc(C(C)(C)C)cc2)CC1
CLASS: F
--
COMPOUND: O=C(COc1ccccc1)N1CCN(S(=O)(=O)c2cccs2)CC1
CLASS: F
--
COMPOUND: COC(=O)c1cc(-c2cc(OC)ccc2OC)nc2c1c(=O)n(C)c(=O)n2Cc1ccccc1
CLASS: F
--
COMPOUND: S=c1nc[nH]c2c1[nH]c1ccc(Cl)cc12
CLASS: F
--
COMPOUND: Cc1cccc(Nc2ccccc2C(=O)OCC(=O)N(C)C2CCS(=O)(=O)C2)c1C (stereo unspecified)
CLASS: F
--
COMPOUND: Cc1ccc(N=Nc2ccc(O)c3ncccc23)cc1C
CLASS: F
--
COMPOUND: CC(C)NC(=O)/C(=C/c1cn(-c2ccccc2)nc1-c1cccc([N+](=O)[O-])c1)NC(=O)c1ccccc1
CLASS: F
--
COMPOUND: COc1ccc(-c2cnc3c(c2)CCC3(C#N)C#N)cc1
CLASS: F
--
COMPOUND: CON/C=N/C(=S)Nc1ncc(C(F)(F)F)cc1Cl
CLASS: F
--
COMPOUND: C(=N\NC(=Nc1ccccc1)c1ccccn1)/c1ccccn1
CLASS: F
--
COMPOUND: N#CC(c1ccc(Cl)cc1)c1ccc2c(C(F)(F)F)cc(C(F)(F)F)nc2n1 (stereo unspecified)
CLASS: F
--
COMPOUND: Cc1ccc(C)c(/C=C/C(=O)c2ccccc(=O)c2O)c1
CLASS: F
--
COMPOUND: CC(C)Cn1c(=O)c(C(=O)N/N=C/c2cccc(F)c2)c(O)c2ccccc21
CLASS: F
--
COMPOUND: Cc1ccc2nc(NC(=O)c3ccc(Br)o3)sc2c1
CLASS: F
--
COMPOUND: Cc1ccc(-c2nc3c(Cl)cc(Cl)cc3c(=O)n2O)cc1
CLASS: F
--
COMPOUND: Cc1ccc(-c2nc3ncccc3o2)cc1NC(=O)c1cccnc1
CLASS: F
--
COMPOUND: O=C(CSc1ccccn1)N1CCN(S(=O)(=O)c2ccc(Cl)cc2)CC1
CLASS: F
--
COMPOUND: S=c1[nH]c2ccc(Cl)cc2s1
CLASS: F
--
COMPOUND: CCCc1nc(SCC(=O)Nc2cc(Cl)ccc2OC)c2c(=O)n(C)c(=O)n(C)c2n1
CLASS: F
--
COMPOUND: O=S(=O)(Nc1ccccc1Cl)c1ccc(NS(=O)(=O)c2cccs2)cc1
CLASS: F
--
COMPOUND: COc1ccc(CC(=O)NC(=S)Nc2cccc(C)c2)cc1
CLASS: F
--
COMPOUND: O=C1c2ccccc2NC(c2ccccc2O)N1O (stereo unspecified)
CLASS: F
--
COMPOUND: O=C(NC(=S)Nc1ccccn1)c1cc(-c2ccccc2)nc2ccccc12
CLASS: F
--
COMPOUND: O=c1c(Cl)c(Cl)cnn1Cc1nnc(-c2ccccc2Br)o1
CLASS: T
--
COMPOUND: O=C(NC(=S)N1CCN(c2ccccc2)CC1)c1ccccc1
CLASS: F
--
COMPOUND: COC(=O)c1c(NC(=O)CC2SC(N)=NC2=O)sc2c1CCC(C)C2 (stereo unspecified)
CLASS: F

* * *

- EXPERIMENTAL SYSTEM: Potassium voltage-gated channel subfamily KQT member 1 (Homo sapiens) (UniProt P51787)
- Sequence (P51787 whole entry, looked up): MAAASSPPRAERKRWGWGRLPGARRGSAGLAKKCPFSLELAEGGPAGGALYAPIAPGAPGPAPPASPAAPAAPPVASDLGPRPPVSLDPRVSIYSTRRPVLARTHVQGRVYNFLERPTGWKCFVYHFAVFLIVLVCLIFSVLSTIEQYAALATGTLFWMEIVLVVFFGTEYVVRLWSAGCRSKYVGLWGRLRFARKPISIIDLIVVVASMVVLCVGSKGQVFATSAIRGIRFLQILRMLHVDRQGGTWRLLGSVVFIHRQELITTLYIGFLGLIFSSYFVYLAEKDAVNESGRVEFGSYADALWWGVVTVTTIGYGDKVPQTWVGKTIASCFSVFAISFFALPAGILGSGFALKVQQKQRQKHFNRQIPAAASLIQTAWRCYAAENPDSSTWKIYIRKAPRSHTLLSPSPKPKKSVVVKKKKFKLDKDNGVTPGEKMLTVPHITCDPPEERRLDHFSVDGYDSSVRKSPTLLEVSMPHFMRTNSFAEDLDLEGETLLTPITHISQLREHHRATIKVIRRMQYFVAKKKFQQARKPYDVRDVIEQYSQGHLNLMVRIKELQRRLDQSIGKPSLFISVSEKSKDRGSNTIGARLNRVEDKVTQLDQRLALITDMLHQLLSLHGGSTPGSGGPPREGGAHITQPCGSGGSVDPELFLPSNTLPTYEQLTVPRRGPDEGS
- EXPERIMENT DESCRIPTION: KCNQ1 channel current potentiators, confirmation, orthogonal assay for KCNQ1 potentiator project, IonWorks patch clamp, KCNQ1-CHO cells (AID 493184);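 for current potentiation: percent change of the same well's current before compound addition so 0% = no change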
- MEASUREMENT CONTEXT: automated patch clamp current, at 10 µM; hits give high values
Calls of active or inactive are those of the source.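 The calls were made as follows: active = current rise at least 3 SD above the untreated control mean in each of two repeat wells; inactive = the rest.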

MOLECULE: CCCC(=O)n1nc(-c2ccc(C)cc2)nc1NCc1ccco1
EXPERIMENTAL SYSTEM: Potassium voltage-gated channel subfamily KQT member 1 (Homo sapiens) (UniProt P51787)
current potentiation: inactive
--
MOLECULE: Nc1c(Cl)cc(C2=NCCn3nc4cc(C(F)(F)F)ccc4c32)cc1Cl
EXPERIMENTAL SYSTEM: Potassium voltage-gated channel subfamily KQT member 1 (Homo sapiens) (UniProt P51787)
current potentiation: inactive
--
MOLECULE: COc1ccc2c(CCNC(=O)CN3C(=O)c4ccccc4C3=O)c[nH]c2c1
EXPERIMENTAL SYSTEM: Potassium voltage-gated channel subfamily KQT member 1 (Homo sapiens) (UniProt P51787)
current potentiation: inactive
--
MOLECULE: Cc1ccc(-c2csc3ncnc(SCc4ccc(C(=O)O)cc4)c23)cc1
EXPERIMENTAL SYSTEM: Potassium voltage-gated channel subfamily KQT member 1 (Homo sapiens) (UniProt P51787)
current potentiation: inactive
--
MOLECULE: O=C(NC1CC1)C1=NOC(CNc2ncc(C(F)(F)F)cc2Cl)C1 (stereo not drawn)
EXPERIMENTAL SYSTEM: Potassium voltage-gated channel subfamily KQT member 1 (Homo sapiens) (UniProt P51787)
current potentiation: inactive
--
MOLECULE: O=[N+]([O-])c1cc(C(F)(F)F)ccc1Oc1cccnc1[N+](=O)[O-]
EXPERIMENTAL SYSTEM: Potassium voltage-gated channel subfamily KQT member 1 (Homo sapiens) (UniProt P51787)
current potentiation: inactive
--
MOLECULE: Cc1nn(CC(=O)NC(C)c2ccccc2)c(=O)c2ccccc12 (stereo not drawn)
EXPERIMENTAL SYSTEM: Potassium voltage-gated channel subfamily KQT member 1 (Homo sapiens) (UniProt P51787)
current potentiation: inactive
--
MOLECULE: CCSc1nnc(-c2ccncc2)n1Cc1ccccc1
EXPERIMENTAL SYSTEM: Potassium voltage-gated channel subfamily KQT member 1 (Homo sapiens) (UniProt P51787)
current potentiation: inactive

* * *

activation for assorted molecules
- System: TRPC4 beta (transient receptor potential cation channel C4), mouse
- EXPERIMENT DESCRIPTION: activators of mouse TRPC4 channel, confirmation, cell-based, Fluo4 calcium, HEK293 TRPC4beta/mu-opioid, duplicates, 10 µM (AID 2426);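 note: percent rise of integrated ratio over buffer wells lacking compound which define 0%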
- MEASUREMENT CONTEXT: Fluo4 calcium fluorescence, at 10 µM; hits give high values

MOLECULE: CN1C2C=C(N(CCc3c[nH]c4ccccc34)C(=O)c3ccc(Cl)cc3)CC1CC2 (centres undefined)
activation [%]: 130
//
MOLECULE: Cc1ccc2[nH]c3c(=O)n(CCc4cnc[nH]4)cnc3c2c1
activation [%]: 126
//
MOLECULE: Cc1csc2c(N3CCN(C(=S)Nc4ccc(F)cc4F)CC3)ncnc12
activation [%]: 126
//
MOLECULE: COc1ccc(C(CNC(=O)Cc2ccc3ccccc3c2)N(C)C)cc1 (centres undefined)
activation [%]: 171
